Hey, just so you know, these numbers are from PubChem BioAssay (NCI).

Kindly supply the reported GI50 values for the records listed here.
- System: OVCAR-4 ovarian
- protocol: NCI tumour cell line growth inhibition, 48 h

{"columns": ["compound", "target", "GI50"],
 "data": [
  ["COc1cc(NC(=O)CSc2nc3ccc(C)cc3c(=O)n2Cc2ccccc2)cc(OC)c1OC", "OVCAR-4 ovarian", "3.41 µM"],
  ["CC(NCCC(=O)N(CCC(=O)N(CCC(=O)N(CCC(=O)N(CCC(=O)N(CCC(=O)N(CCC(=O)N(CCC(=O)N(CCC(=O)N(CCC(=O)O)[C@H](C)c1ccccc1)[C@H](C)c1ccccc1)[C@H](C)c1ccccc1)[C@H](C)c1ccccc1)[C@H](C)c1ccccc1)[C@H](C)c1ccccc1)[C@H](C)c1ccccc1)[C@H](C)c1ccccc1)[C@H](C)c1ccccc1)c1ccccc1 (some centres undefined)", "OVCAR-4 ovarian", "2.48 µM"],
  ["CNC(=O)CC1NC(=O)c2csc(n2)-c2ccc(-c3nc(C4=NC(C(=O)N5CCCC5C(N)=O)CO4)cs3)nc2-c2csc(n2)-c2csc(n2)C(C(C)C)NC(=O)CNC(=O)c2csc(n2)C(C(C)C)NC(=O)c2nc1sc2C (centres undefined)", "OVCAR-4 ovarian", "> 25 µM"],
  ["Nc1nc(N)c2c(n1)NC(c1ccc(F)cc1)C1CCc3ccccc3C1=N2 (centres undefined)", "OVCAR-4 ovarian", "3.98 µM"],
  ["O=C(Nc1ccc2[nH]c(=S)sc2c1)Nc1ccccc1F", "OVCAR-4 ovarian", "21 µM"]
]}

Each of the following entries comes with a recorded value; kindly state GI50 for each.
1. COC(=O)C1=C(C(=O)OC)SC(=C(Cl)C(=S)Nc2ccccc2O)S1
2. CCCCCCCCCCCCOC1C(C(COC2OC(C3COC(C)(C)O3)C3OC(C)(C)OC23)NC(=O)NS(=O)(=O)c2ccccc2)OC2OC(C)(C)OC21 (centres undefined)
3. O=P(CCCCP(=O)(c1ccccc1)c1ccccc1)(c1ccccc1)c1ccccc1.[Cl][Sn]([Cl])([c]1ccccc1)[c]1ccccc1
4. COC(=O)C1CCCN1C(=O)[C@@H]1CCCN1C(=O)[C@H](Cc1c[nH]c2ccccc12)NC(=S)Nc1cc(C(F)(F)F)cc(C(F)(F)F)c1 (some centres undefined)

35.5 µM
8.23 µM
1.54 µM
3.18 µM

---

Kindly supply the reported TGI values for the records listed here.
- System: RPMI-8226 leukemia
- protocol: NCI tumour cell line growth inhibition, 48 h

Guide cases for TGI, answers given:
{"columns": ["compound", "quantity kind", "result"],
 "data": [
  ["COCn1cnc2c(=O)n(-c3ccc(OC)cc3)c(=S)n(-c3ccc(OC)cc3)c21", "TGI", "> 100 µM"],
  ["NC(=S)N/N=C1/CCCC2CCCC[C@@H]12 (stereo partly drawn)", "TGI", "> 100 µM"]
]}

Now consider a different compound.
I am curious: what TGI value has been reported for CN(C)CC1C(=O)O[C@H]2[C@H]1CC/C(COC(=O)c1cc3ccccc3[nH]1)=C\CC[C@@]1(C)O[C@@H]21 (stereo partly drawn) ?
2.11 µM

---

Kindly supply the reported TGI values for the records listed here.
- System: NCI-H522 lung
- protocol: NCI tumour cell line growth inhibition, 48 h
One number for each entry, in µM.

{"columns": ["compound", "TGI (µM)"],
 "data": [
  ["COC(=O)C(Cc1ccc(Oc2cc(CC(NC(=O)c3ccccc3)C(=O)OC)ccc2OC)cc1)NC(=O)c1ccccc1 (stereo unspecified)", 27.2]
]}

Each of the following entries comes with a recorded value; kindly state TGI for each.
1. COC(=O)C1(C(=O)OC)Cc2ccc(C)cc2C2=C1C(=O)c1ccccc1C2=O
2. COc1ccc(C2=NN(C(N)=S)C(c3ccccc3)C2)cc1 (stereo unspecified)
3. Cc1ccc([N+](=O)[O-])cc1NC(=O)c1cccc([N+](=O)[O-])c1O
4. CNCCNc1c2c(c(NCCNC)c3[nH]ccc13)C(=O)c1ccccc1C2=O
5. CC[C@@]1(OC(=O)CN)C(=O)OCc2c1cc1n(c2=O)Cc2cc3c(N)cccc3nc2-1
6. COc1ccc(NC(=O)COCCOCCNC[C@@H]2C(=O)O[C@H]3[C@H]2CC/C(COC(=O)OC/C2=C/CC[C@@]4(C)O[C@H]4[C@H]4OC(=O)[C@@H](CN(C)C)[C@@H]4CC2)=C\CC[C@@]2(C)O[C@@H]32)c(O)c1C(N)=O

32
84.1
26.6
0.339
1.31
1.88

Each of the following entries comes with a recorded value; kindly state TGI for each.
1. O=c1nc(NC(c2ccccc2)(c2ccccc2)c2ccccc2)ccn1CCNCCn1ccc(NC(c2ccccc2)(c2ccccc2)c2ccccc2)nc1=O
2. CC(C)COCC(CN(Cc1ccccc1)c1ccccc1)N1CCCC1 (stereo unspecified)
3. CC(C)(CN1CCCCC1)C(=O)/C=C/c1ccc(Cl)cc1

1: 21.5; 2: 3.35; 3: 9.9

---

- System: OVCAR-3 ovarian
- protocol: NCI tumour cell line growth inhibition, 48 h
quantity kind: TGI

{"columns": ["compound", "target", "TGI"],
 "data": [
  ["CC(C)(C)OC(=O)NC(CCC(=O)OCc1ccccc1)C(=O)NCCCO (configuration not stated)", "OVCAR-3 ovarian", "> 100 µM"],
  ["Cc1cc2nc(N3C(=O)/C(=C/c4ccccc4S)N=C3c3ccccc3)sc2cc1C", "OVCAR-3 ovarian", "> 100 µM"],
  ["C=C1C(=O)OC2C=C(CCC(C)=O)C(C)C(OC(C)=O)CC12 (configuration not stated)", "OVCAR-3 ovarian", "26 µM"],
  ["CC1(C)C/C(=N/O)c2c(nc3ccc4ccccc4c3c2-c2ccc(Cl)cc2)C1", "OVCAR-3 ovarian", "24.7 µM"],
  ["COC(=O)c1cc2cc3c(c(O)c2c(=O)o1)O[C@@]1(Oc2c(O)c4c(c(O)c2[C@H]1OC1CC(OC)C(O)C(C)O1)C(=O)C=C(OC)C4=O)[C@H](O)C3 (some centres not stated)", "OVCAR-3 ovarian", "> 23.4 µM"]
]}

Each of the following entries comes with a recorded value; kindly state TGI for each.
1. CC1=NN(C(=O)CC(=O)Nc2ccc(C)cc2)C(=O)C1N=Nc1ccc(S(=O)(=O)c2ccc(N=NC3C(=O)N(C(=O)CC(=O)Nc4ccc(C)cc4)N=C3C)cc2)cc1 (configuration not stated)
2. Nc1ccc(CCSSCCc2ccc(N)cc2)cc1
3. C[C@]12CCC(=O)C(O)=C1CC[C@@H]1C2CC[C@]2(C)Nc3c(cnn3-c3ccccc3)CC12 (some centres not stated)
4. O=C(O)CNS(=O)(=O)c1ccc(NC(=O)CI)cc1

> 100 µM
> 88.4 µM
> 100 µM
62 µM

Each of the following entries comes with a recorded value; kindly state TGI for each.
1. CSc1sc(=S)sc1C(=O)N(C)c1ccccc1
2. COC(=O)C1CCCN1C(=O)[C@@H]1CCCN1C(=O)[C@H](Cc1c[nH]c2ccccc12)NC(=S)Nc1cc(C(F)(F)F)cc(C(F)(F)F)c1 (some centres not stated)
3. O=C(c1ccccc1)N1OCCC1Nc1ccc(Br)cc1 (configuration not stated)

> 100 µM
3.85 µM
> 10 µM

---

Kindly supply the reported TGI values for the records listed here.
- System: RXF 393 renal
- protocol: NCI tumour cell line growth inhibition, 48 h
Answers are plain numbers, in µM.

{"columns": ["molecule", "target", "output unit", "numeric result"],
 "data": [
  ["O=C(c1ccccc1)C(Br)C(Br)c1cccc([N+](=O)[O-])c1 (stereo not drawn)", "RXF 393 renal", "µM", 2.94]
]}

Each of the following entries comes with a recorded value; kindly state TGI for each.
1. CC(C)(CN1CCCCC1)C(=O)/C=C/c1ccc(Cl)cc1
2. CCC[CH2][Sn]([CH2]CCC)([CH2]CCC)[O]C(=O)c1ccc(Cl)cc1Cl
3. CN(C)CC1C(=O)O[C@H]2[C@H]1CC/C(COC(=O)c1cc3ccccc3[nH]1)=C\CC[C@@]1(C)O[C@@H]21 (stereo partly drawn)

[13.8, 0.321, 2.89]

---

- Tested on: NCI-H460 lung
- protocol: NCI tumour cell line growth inhibition, 48 h
Where a SMILES comes first, the peptide text is derived from it. The star is where a group is joined. Ethyl(2-NMe3+) = C[N+](C)(C)CC*; Boc = CC(C)(C)OC(=O)*
Kindly supply the reported TGI values for the records listed here.

Guide cases for TGI, answers given:
{"columns": ["molecule", "TGI"],
 "data": [
  ["COc1cccc(-c2nc3ccccc3c(=O)[nH]2)c1OC", "> 100 µM"],
  ["COc1cccc2c1/c(=C/c1ccc(N(C)C)cc1)c1cc(-c3ccccc3)[n+](C)n12", "0.949 µM"],
  ["COc1ccc(N2C(=O)C(C)SC2c2cc3cc(Br)ccc3nc2Cl)cc1 (centres undefined)", "> 100 µM"],
  ["COC(=O)C1=C(C(=O)OC)SC(=C(Cl)C(=S)Nc2ccccc2O)S1", "> 50 µM"],
  ["Cc1cc(NCc2cc(Nc3ccnc4cc(Cl)ccc34)ccc2F)nc(N2CCN(C)CC2)n1", "3.31 µM"]
]}

Each of the following entries comes with a recorded value; kindly state TGI for each.
1. Cc1ccc(C)n1-c1ccccc1C1C=CN(C(=O)OC(C)(C)C)C=C1
2. CC1=NN(C(=O)CC(=O)NC(=O)CC(=O)Nc2ccccc2F)C(=O)C1N=Nc1ccc([N+](=O)[O-])cc1 (centres undefined)
3. O=C(c1ccccc1)C(Br)C(Br)c1cccc([N+](=O)[O-])c1 (centres undefined)
4. COC(=O)CCC1CCC(c2cc(F)ccc2F)(S(=O)(=O)c2ccc(Cl)cc2)CC1 (centres undefined)
5. Cc1ccc(C2SC(N)=Nc3c2c(C)nn3C(=O)c2ccccc2O)cc1 (centres undefined)

96.9 µM
> 100 µM
14.9 µM
> 100 µM
> 10 µM

Each of the following entries comes with a recorded value; kindly state TGI for each.
1. COC(=O)C(Cc1ccc(Oc2cc(CC(NC(=O)c3ccccc3)C(=O)OC)ccc2OC)cc1)NC(=O)c1ccccc1 (centres undefined)
2. CC(NC(=O)C(Cc1ccc(OCC[N+](C)(C)C)cc1)NC(=O)OC(C)(C)C)C(=O)NC(Cc1ccccc1)C(=O)NCC(N)=O (centres undefined) (Boc-Y(Ethyl(2-NMe3+))AFG-NH2; configuration not given here)

1. > 100 µM
2. > 100 µM

Each of the following entries comes with a recorded value; kindly state TGI for each.
1. CC(=O)C(CN(Cc1ccccc1)Cc1ccccc1)C(c1ccccc1)c1c(O)c2ccccc2oc1=O (centres undefined)
2. Cc1cc(Cc2cc(C)cc(C(C)(C)C)c2O)c(O)c(Cc2cc(C)cc(C(C)(C)C)c2O)c1
3. COC(=O)[C@]12CC=C3O[C@@H]4OC5(CCCCC5)O[C@@H]4C3[C@@H]1C(=O)CCC2=O (some centres undefined)

["> 100 µM", "4.22 µM", "> 100 µM"]

Each of the following entries comes with a recorded value; kindly state TGI for each.
1. Cc1c(C(=O)CC(=O)C(=O)Nc2ccc(Cl)cc2)[n+](=O)c2ccccc2n1[O-]
2. COc1ccc(C(=O)O)c2c(=O)c3cccnc3[nH]c12
3. O=Cc1ccccc1B(O)O

1. > 100 µM
2. > 100 µM
3. > 100 µM
